Reference for the values: patent US20240010721A1

Each entry below carries its recorded ELISA signal (called MFI).
molecular target: T1, Human ROR1-ECD-his (human, UniProt Q01973 30-406); test: ELISA, plate coated with hROR1 ECD-his
T1 construct: extracellular domain; bought, Acrobiosystems RO1-H522y; also called hROR1-ECD-his; hROR1 ECD-his
T1 sequence (Q01973 30-406): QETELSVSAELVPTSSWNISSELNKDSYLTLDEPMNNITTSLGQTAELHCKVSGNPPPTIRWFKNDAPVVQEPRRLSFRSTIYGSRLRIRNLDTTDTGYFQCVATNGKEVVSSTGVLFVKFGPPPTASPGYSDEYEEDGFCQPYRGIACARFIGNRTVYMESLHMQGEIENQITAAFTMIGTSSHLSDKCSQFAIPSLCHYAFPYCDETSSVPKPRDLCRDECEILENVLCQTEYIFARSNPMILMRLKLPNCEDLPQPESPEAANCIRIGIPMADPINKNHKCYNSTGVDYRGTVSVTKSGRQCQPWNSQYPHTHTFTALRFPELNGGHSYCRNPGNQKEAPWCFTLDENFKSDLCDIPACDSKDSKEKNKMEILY

BINDER	ELISA signal (called MFI)
PR001364 (antibody, human IgG1, kappa, V domains shown, fully human IgG1, kappa; also called anti-ROR1 1015M3-D8 hIgG1; PR001364(WT)) VH: EVQLLESGGGVVQPGRSLRLSCAASGFTFSSFGMHWVRQAPGKGLEWVAVIWYDGSDKDYADSVKGRFTISRDTSKNTLYLQMNSLRAEDTAVYYCAREQARSFDLWGRGTLVTVSS VL: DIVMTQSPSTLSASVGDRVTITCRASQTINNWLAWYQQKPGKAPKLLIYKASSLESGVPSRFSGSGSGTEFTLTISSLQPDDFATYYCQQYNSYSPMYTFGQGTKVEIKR	2.38
PR001357 (antibody, human IgG1, kappa, V domains shown, fully human IgG1, kappa) VH: QVQLVQSGGGVVQPGRSLRLSCAASGFTFSSYGMHWVRQAPGKGLEWVAVIWYDGSNKDYADSVKGRFTISRDTSKNTLYLQMNSLRAEDTAVYYCAREQARSFDLWGRGTLVTVSS VL: DIQLTQSPYSLSASVGDRVTITCRASQTINNWLAWYQQKPGKAPKLLIYKASSLESGVPSRFSGSGSGTEFTLTISSLQPDDFATYYCQQYKLYSPMYTFGQGTKVEIKR	2.5
PR001367 (antibody, human IgG1, kappa, V domains shown, fully human IgG1, kappa) VH: QVQLVESGGGVVQPGRSLRLSCAASGFSFSSYAMHWVRQAPGRGLEWVAVIWYDGGDEDYIDSVKGRFTISRDDSKNTLYLQMNSLRAEDTAVYYCAREQARSFDLWGRGTLVTVSS VL: DVVMTQSPSTLSASVGDRVTITCRASQTINNWLAWYQQKPGKAPKLLIYKASSLESGVPSRFSGSGSGTEFTLTISSLQPDDFATYYCQQYNSYSPMYTFGQGTKVEIKR	2.38
